Molecular target: T1, Tumor-associated calcium signal transducer 2 (UniProt P09758 27-323, limits assumed)
T1 sequence (looked up): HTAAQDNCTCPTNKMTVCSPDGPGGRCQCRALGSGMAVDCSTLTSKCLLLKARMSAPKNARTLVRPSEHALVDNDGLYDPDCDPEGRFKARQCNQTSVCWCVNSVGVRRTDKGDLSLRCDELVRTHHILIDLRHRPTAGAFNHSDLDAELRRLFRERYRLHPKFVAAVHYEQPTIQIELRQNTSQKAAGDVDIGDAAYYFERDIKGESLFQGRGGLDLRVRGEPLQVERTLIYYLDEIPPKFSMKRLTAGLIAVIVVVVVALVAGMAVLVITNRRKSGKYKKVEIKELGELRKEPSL
Test: cell-based or functional assay
quantity kind: IC50 (nM), in vitro killing activity, BXPC3 Cell

| binder | reported result |
| --- | --- |
| FDA018-LE14 (antibody, human IgG1, kappa, V domains shown, linker-drug LE14 coupled to cysteine sulfhydryl groups after reduction of the interchain disulfide bonds; DAR 4.00 for the whole antibody; sites not stated) VH: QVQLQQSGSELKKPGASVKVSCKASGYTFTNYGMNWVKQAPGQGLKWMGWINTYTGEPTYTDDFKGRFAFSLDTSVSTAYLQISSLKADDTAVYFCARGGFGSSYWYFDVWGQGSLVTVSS VL: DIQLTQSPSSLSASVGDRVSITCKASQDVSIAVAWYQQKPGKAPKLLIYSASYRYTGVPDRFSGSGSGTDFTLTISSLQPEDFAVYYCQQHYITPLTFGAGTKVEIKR | 0.5 |
| FDA018-LE17 (antibody, human IgG1, kappa, V domains shown, linker-drug LE17 coupled to cysteine sulfhydryl groups after reduction of the interchain disulfide bonds; DAR 3.98 for the whole antibody; sites not stated) VH: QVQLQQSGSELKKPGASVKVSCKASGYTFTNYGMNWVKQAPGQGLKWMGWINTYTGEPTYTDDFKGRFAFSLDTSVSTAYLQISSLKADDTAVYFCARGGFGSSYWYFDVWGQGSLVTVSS VL: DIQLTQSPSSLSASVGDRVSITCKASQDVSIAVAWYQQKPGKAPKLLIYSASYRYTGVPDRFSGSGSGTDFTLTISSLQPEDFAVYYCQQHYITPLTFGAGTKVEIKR | 0.62 |
| FDA018-GGFG-Dxd (antibody, human IgG1, kappa, V domains shown, linker-drug GGFG-Dxd coupled to cysteine sulfhydryl groups after reduction of the interchain disulfide bonds; DAR 4.03 for the whole antibody; sites not stated) VH: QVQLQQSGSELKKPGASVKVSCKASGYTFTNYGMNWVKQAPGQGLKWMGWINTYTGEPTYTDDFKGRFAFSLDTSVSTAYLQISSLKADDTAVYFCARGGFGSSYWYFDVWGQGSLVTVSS VL: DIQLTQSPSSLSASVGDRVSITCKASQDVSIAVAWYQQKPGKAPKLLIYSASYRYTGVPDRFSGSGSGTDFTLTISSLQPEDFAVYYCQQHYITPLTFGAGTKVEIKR | 0.61 |
| FDA018-LE16 (antibody, human IgG1, kappa, V domains shown, linker-drug LE16 coupled to cysteine sulfhydryl groups after reduction of the interchain disulfide bonds; DAR 4.03 for the whole antibody; sites not stated) VH: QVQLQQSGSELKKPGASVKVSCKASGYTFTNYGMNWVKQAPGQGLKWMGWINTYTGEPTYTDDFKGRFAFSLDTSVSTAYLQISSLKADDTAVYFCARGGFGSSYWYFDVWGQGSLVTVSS VL: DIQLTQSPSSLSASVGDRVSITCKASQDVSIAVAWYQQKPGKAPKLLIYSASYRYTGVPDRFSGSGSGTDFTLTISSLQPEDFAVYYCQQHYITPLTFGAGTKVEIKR | 1.58 |
